# System: OVCAR-8 ovarian
# METHOD_DESCRIPTION: NCI-60 one-dose screen, 48 h (100 = growth as untreated, 0 = no growth, -100 = all killed)
# CONDITION_PARAMETERS: 10 µM unless noted
This is part of a sample that, as a whole, favours compounds with a hit. Of some 83,000 tested, about 20% had one in any assay.
OBSERVABLE: growth (%)
Field format: number, assumed %, no unit text.

Tell me reported growth for Cn1cc(-c2nnc(N)nc2-c2c[nH]c3ccc(F)cc23)c2cc(Br)ccc21 , tested with OVCAR-8 ovarian.
34.4

Tell me reported growth for CN1CCN(c2ccc(Nc3nc(NCCNC(=O)c4ccccc4)c4sccc4n3)cc2)CC1 , tested with OVCAR-8 ovarian.
62.4

Tell me reported growth for O=C(Nc1cc(C(F)(F)F)cc(C(F)(F)F)c1)Nc1ccc2oc(=O)ccc2c1 , tested with OVCAR-8 ovarian.
14.2

Tell me reported growth for NS(=O)(=O)c1ccc(CCn2c(-c3ccc(C(=O)O)cc3)nc(-c3ccccc3)c2-c2ccccc2)cc1 , tested with OVCAR-8 ovarian.
111

Tell me reported growth for CN1CCN(Cc2ccc(NC(=O)c3cncc(C#Cc4cnc5ccc(OCC(F)F)nn45)c3)cc2C(F)(F)F)CC1 , tested with OVCAR-8 ovarian.
-74.6

Tell me reported growth for N#Cc1c(-c2cccs2)cc(-c2cnccn2)nc1SCC(=O)N/N=C/c1ccc(Cl)cc1 , tested with OVCAR-8 ovarian.
104

Tell me reported growth for O=C1Nc2ccc(F)cc2/C1=C\C(=O)c1ccc(NS(=O)(=O)c2ccccc2)cc1 , tested with OVCAR-8 ovarian.
91.1

Tell me reported growth for Cn1c(SCC(=O)c2ccco2)nc2ccccc2c1=O , tested with OVCAR-8 ovarian.
101

Tell me reported growth for CCCCCCOC(=O)c1cc(-c2ccc(F)cc2)nc2ccccc12 , tested with OVCAR-8 ovarian.
98.1

Tell me reported growth for CC(Nc1c(C#N)cnc2ccc(-c3cncc(O)c3)cc12)c1ccccc1 (stereo not given) , tested with OVCAR-8 ovarian.
13

###

# System: NCI/ADR-RES ovarian
# METHOD_DESCRIPTION: NCI-60 one-dose screen, 48 h
# CONDITION_PARAMETERS: 10 µM unless noted
This is part of a sample that, as a whole, favours compounds with a hit. Of some 83,000 tested, about 20% had one in any assay. The source made the active and inactive calls. The calls were made as follows: active = growth percent below 10; inactive = the rest.
Would you mind answering with one of these outcomes? true (1) = active, false (0) = inactive

# lookup: test call for Cc1cc2nc3c4cc(C#N)ccc4n(CCN(C)C)c3nc2cc1C
true (1)

# lookup: test call for O=C(/C=C/c1ccc(Cl)c(Cl)c1)Nc1ncc(Cc2ccc(Cl)c(Cl)c2)s1
false (0)

# lookup: test call for N#Cc1c(-c2cccs2)cc(-c2cnccn2)nc1SCC(=O)N/N=C/c1ccc(Cl)cc1
false (0)

# lookup: test call for Brc1cccc(-c2cc(-c3ccc4c(c3)OC=CO4)[nH]n2)c1
false (0)

# lookup: test call for O=C(CCCCCCNC(=O)C(O)(O)C(F)(F)F)Nc1ncc(-c2ccc(Br)cc2)s1
true (1)

# lookup: test call for CCOC(=O)c1cccc(NC2=C(Cl)C(=O)C(C)=C(C)C2=O)c1
false (0)

# lookup: test call for Brc1cc(-c2cc(-c3ccc4c(c3)OCCO4)[nH]n2)cs1
false (0)

# lookup: test call for COc1ccc([C@H]2C(=O)N(c3cc(OC)c(OC)c(OC)c3)[C@@H]2c2ccc(OC)c(O)c2)cc1
false (0)

# lookup: test call for Cc1ccc(OCc2occc2C(=O)N2CCOCC2)cc1
false (0)

# lookup: test call for Cc1ccc(-c2nc(SCC(=O)c3ccccc3)nc(Nc3ccc(S(N)(=O)=O)cc3)c2C#N)cc1
false (0)

# lookup: test call for CCCCc1nc2c(N)nc3ccccc3c2n1Cc1cccc(CN)c1
false (0)

# lookup: test call for O=C(CSc1nc2ccccc2c(=O)n1-c1ccc(S(=O)(=O)Nc2ccc(Cl)nn2)cc1)Nc1ccc(S(=O)(=O)Nc2ccc(Cl)nn2)cc1
false (0)

# lookup: test call for CC1(C)CC[C@]23CC[C@]4(C)[C@H](CC[C@@H]5[C@@]6(C)CC[C@H](NCO)C(C)(C)[C@@H]6CC[C@]54C)[C@H]2[C@H]1OC3
false (0)

# lookup: test call for CCOc1cccc(/C(N)=N/C(N)=N/c2nc3ccccc3s2)c1
false (0)

# lookup: test call for COc1ccc(NC(=O)CCCCCCNC(=O)C(O)(O)C(F)(F)F)cc1
false (0)

# lookup: test call for CCCCCCOC(=O)c1cc(-c2ccc(F)cc2)nc2ccccc12
false (0)

# lookup: test call for NC1[C@H]2CN(c3cnc(C(=O)Nc4cc(F)cc5cccnc45)cn3)C[C@@H]12 (stereo not given in full)
false (0)

# lookup: test call for C1=CC(c2nn3c(-c4ccccc4)nnc3s2)=Cc2ccccc2O1
false (0)

# lookup: test call for C#C[C@]1(O)CC[C@H]2[C@@H]3CC=C4c5sc(Nc6cccc(F)c6)nc5CC[C@]4(C)[C@H]3CC[C@@]21C
false (0)

# lookup: test call for O=C(CCCCCCNC(=O)C(O)(O)C(F)(F)F)Nc1ncc(-c2ccccc2)s1
true (1)

###

# Tested on: T-47D breast
# METHOD_DESCRIPTION: NCI-60 one-dose screen, 48 h (100 = growth as untreated, 0 = no growth, -100 = all killed)
# CONDITION_PARAMETERS: 10 µM unless noted
About 83,000 compounds went through this panel and 20% of them were active in at least one assay; those are over-represented in the sample as a whole.
// returns FALSE unless growth is strictly below 70%, in which case TRUE

Lab note: growth threshold 70%. Does this molecule come in strictly under it? FC(F)(F)c1cc(Br)cc(-c2cc(-c3ccc4c(c3)OCCO4)[nH]n2)c1
TRUE

Lab note: growth threshold 70%. Does this molecule come in strictly under it? COc1ccc(OC)c(NC(=O)CCCCCCNC(=O)C(O)(O)C(F)(F)F)c1
TRUE

Lab note: growth threshold 70%. Does this molecule come in strictly under it? CNC(=O)c1cc(-n2ccc3cc(NC(=O)Nc4ccc(N5CCN(C)CC5)c(C(F)(F)F)c4)ccc32)ccn1
FALSE

Lab note: growth threshold 70%. Does this molecule come in strictly under it? COC(=O)N1CCN(CCNCc2ccc(NC(=O)c3ccc(C)c(C#Cc4cnc5cccnn45)c3)cc2C(F)(F)F)CC1
TRUE

Lab note: growth threshold 70%. Does this molecule come in strictly under it? O=C(COc1ccc(/C=C2\C(=O)Nc3ccc(F)cc32)cc1)Nc1ccccc1
FALSE

###

Hi there, I'd appreciate the recorded growth for every entry that follows.
# Test system: HCT-116 colon
# METHOD_DESCRIPTION: NCI-60 one-dose screen, 48 h (100 = growth as untreated, 0 = no growth, -100 = all killed)
# CONDITION_PARAMETERS: 10 µM unless noted
Compounds without any hit were thinned out: in the full panel of roughly 83,000, 20% have a hit.
Field format: number, assumed %, no unit text.

Tell me reported growth for C[C@]12CC[C@H]3[C@@H](CC=C4C[C@@H](O)CC[C@@]43C)[C@@H]1CC[C@@H]2[C@](C)(O)CCc1cccnc1 , tested with HCT-116 colon.
51.9

Tell me reported growth for CN1CCN(c2ccc(Nc3nc(NCCCNS(=O)(=O)c4cccc5ccccc45)c4sccc4n3)cc2)CC1 , tested with HCT-116 colon.
-73

Tell me reported growth for Cc1cc2nc(C(Cl)Cl)nc(-c3ccc(S(=O)(=O)N(C)C)cc3)n2n1 , tested with HCT-116 colon.
18.2

Tell me reported growth for O=C(CCCCCCN1CC(=O)N2[C@@H](c3ccc(Cl)s3)c3[nH]c4ccccc4c3C[C@H]2C1=O)NO , tested with HCT-116 colon.
13

Tell me reported growth for Cc1ccc(-c2nc(SCC(=O)c3ccccc3)nc(Nc3ccc(S(N)(=O)=O)cc3)c2C#N)cc1 , tested with HCT-116 colon.
35.9

Tell me reported growth for O=S(=O)(NCCCNc1nccc(-c2[nH]c(-c3ccccc3)nc2-c2ccc(F)c(O)c2)n1)c1cccc(F)c1 , tested with HCT-116 colon.
72.2

Tell me reported growth for COc1ccc(C(=O)c2c(N)c(C#N)cn2-c2ccc(Cl)cc2Cl)cc1 , tested with HCT-116 colon.
97.7

Tell me reported growth for Clc1ccc2[nH]cc(-c3nn4cc(-c5ccncc5)nc4s3)c2c1 , tested with HCT-116 colon.
10.8

Tell me reported growth for O=c1c2ccccc2cc2n1CCN=C2c1ccccc1 , tested with HCT-116 colon.
106

Tell me reported growth for CCc1nnc(NC(=O)c2cc(-c3ccc(Cl)cc3Cl)oc2C)s1 , tested with HCT-116 colon.
42.2

Tell me reported growth for C(=N\Nc1nc(N/N=C/c2ccc3c(c2)OCO3)nc(N2CCCCC2)n1)/c1ccc2c(c1)OCO2 , tested with HCT-116 colon.
47.9

Tell me reported growth for Nc1cc(C(=O)N/N=C\c2ccc(OC(F)F)c(OC3CCCC3)c2)nn1CC(O)c1ccccc1 (stereo not drawn) , tested with HCT-116 colon.
103

Tell me reported growth for Cn1c(SCC(=O)c2ccc(F)cc2)nc2ccccc2c1=O , tested with HCT-116 colon.
89.1

Tell me reported growth for CCCCCN1C(=O)/C(=c2\sc3n(c2=O)C2C(NN=3)N(CC)C(=O)N2CC)c2cccc(C)c21 (stereo not drawn) , tested with HCT-116 colon.
32.3

Tell me reported growth for CC(=O)N(O)CCCCCNC(=O)CCC(=O)N(O)CCCCCNC(=O)CCC(=O)N(O)CCCCCN(CCCCCCCCCC[P+](c1ccccc1)(c1ccccc1)c1ccccc1)CCCCCCCCCC[P+](c1ccccc1)(c1ccccc1)c1ccccc1 , tested with HCT-116 colon.
3.76

Tell me reported growth for CCN(CC)c1ccc(/C=N/NC(=O)c2ccc(S(N)(=O)=O)cc2)c(O)c1 , tested with HCT-116 colon.
24.2

Tell me reported growth for O=C(CCCCCCNC(=O)C(O)(O)C(F)(F)F)Nc1ccc(Cl)cc1 , tested with HCT-116 colon.
3.99

Tell me reported growth for OCC(Nc1ncnc2ccc(-c3cnc4cnccn34)cc12)c1ccccc1 (stereo not drawn) , tested with HCT-116 colon.
79.3
